Please respond with reported composite z-score for every item in the list.
Test system: PRMT1 (protein arginine N-methyltransferase 1)
Assay: PRMT1 binders on small-molecule microarrays, primary screen, biochemical, small-molecule microarray, 635 nm fluorescence (AID 1088)
Details: small-molecule microarray binding, higher = more signal
Just the number, please.

## Task For the compound `CO[C@H]1O[C@H](CO)[C@@H](OC(=O)Nc2ccccc2-c2ccccc2)[C@H](OC(=O)Nc2ccc3c(c2)OCO3)[C@H]1OC(=O)Nc1ccc2c(c1)OCO2` , what composite z-score is on record?
## Result 1.53

## Task And CCCCCCCCCCC(O)C1C=CC2C(=O)N(C)C(=O)C2N1NC(=O)OC(C)(C)C (configuration not stated) ?
## Result 0.76

## Task And `COCCCNC(=O)[C@@]1(Cc2ccccc2N=[N+]=[N-])COC(c2ccc(OCCCO)cc2)=N1` ?
## Result 1.43

## Task And C=CCC(OC(C)=O)[C@@H]1[C@@H](N(Cc2cc3ccccc3o2)C(=O)c2ccc(-c3ccccc3)cc2)c2cc(OCCCO)ccc2N1C(=O)c1ccc2ccccc2c1 (some centres not stated) ?
## Result 0.0279

## Task And `C[N+](C)(C)CCCCCCNC(=O)[C@H]1C[C@H]2C(=O)N[C@@H](Cc3ccccc3)C(=O)N2[C@H]1c1ccc(O)cc1` ?
## Result 1.53

## Task And `COc1ccc([Si](C)(C)[C@H]2[C@H](CCO)O[C@@]3(C(=O)N(Cc4cccc(N5C(=O)COc6ccccc65)c4)c4ccccc43)[C@@H]2C)cc1` ?
## Result 0.911

## Task And O=C1C2C=CC(C(O)c3ccc(Br)cc3)N(Nc3ccccc3F)C2C(=O)N1c1ccccc1 (configuration not stated) ?
## Result 0.566
